Experiment: photoluminescence quantum yield (fraction); solvent given as SMILES
Conditions: in CC#N
Quick reference for photoluminescence quantum yield among some compounds

Use these answered entries as a reference point.
[[record]]
compound = "CCOC(=O)CSc1nc(-c2ccccc2)c(C)c(C#N)c1C#N"
result = 0.036

[[record]]
compound = "C=CC12N=N[C@](C=C)(C3C4CCC(C4)C31)C1[C@@H]3CC[C@@H](C3)[C@H]12 (stereo not given in full)"
result = 0.16

[[record]]
compound = "COc1ccc(C#Cc2cc3ccccc3oc2=O)cc1"
result = 0.55

[[record]]
compound = "Nc1nc2ccccc2[n+]([O-])n1"
result = 0.169

[[record]]
compound = "CC(=O)c1ccc(NC(=O)c2ccc(N(C)C)cc2)cc1"
result = 0.0017

[[record]]
compound = "CN(C)CCCN1c2ccccc2CCc2ccccc21"
result = 0.012


Qu. I am curious: what photoluminescence quantum yield value has been reported for "C#CCn1c2ccccc2c2cc(/C=C/c3c(Cl)c(C)c4n3[B-](F)(F)[N+]3=C(C)C(Cl)=C(C)C3=C4c3ccc(I)cc3)ccc21" ?
Ans. 0.43

Qu. Requested read-out: photoluminescence quantum yield. Entry: "CCCCCCC(CCCCCC)n1c(=O)c2c3ccc4cccc5c6cccc7ccc(c2c1=O)c(c76)c3c45"
Ans. 0.33

Qu. Any idea what its photoluminescence quantum yield is? The compound is "Nc1ncnc2c1c(-c1ccc3ccccc3c1)nn2[C@H]1C[C@H](O)[C@@H](CO)O1"
Ans. 0.1

Qu. # photoluminescence quantum yield lookup, item "CCCCNC(=O)c1nc2c(N(C)C)nc(N(C)C)nc2n1Cc1ccccc1"
Ans. 0.95
